Every entry's value here was drawn from paper PMC11069232.

Test system: OVCAR4 cells
Assay name: CyQuant cell viability assay, OVCAR4
Type: cell-based, human
Experimental context: OVCAR4; CyQuant; Table 4; read-out: IC50
pIC50: −log10 of the molar value.
Measure name: pIC50

Smiles: CC[N+](C)(CC)CCCCCCOc1ccc(C(c2ccc(OCCCCCC[N+](C)(CC)CC)cc2)=C2C3C[C@H]4C[C@@H](C3)C[C@H]2C4)cc1
Test result: 6.25

Smiles: Nc1c(C(=O)Nc2ccc(F)cc2)sc2nc(-c3cccs3)cc(C(F)(F)F)c12
Test result: 5.33

###

Tested on: CAOV3 cells
Assay name: CyQuant cell viability assay, CAOV3
Type: cell-based, human
Experimental context: CAOV3; CyQuant; Table 4; read-out: IC50
pIC50: −log10 of the molar value.
Measure name: pIC50

Smiles: Nc1c(C(=O)Nc2ccc(F)cc2)sc2nc(-c3cccs3)cc(C(F)(F)F)c12
Test result: 5.04
--
Smiles: CC[N+](C)(CC)CCCCCCOc1ccc(C(c2ccc(OCCCCCC[N+](C)(CC)CC)cc2)=C2C3C[C@H]4C[C@@H](C3)C[C@H]2C4)cc1
Test result: 6.31

###

Test system: CAOV3 cells
Assay name: CyQuant cell viability assay, CAOV3
Assay type: cell-based, human
Experimental context: Homo sapiens, Caov-3, 72 h, read-out: Potency [IC50 (µM)]
Measure name: IC50 (µM)

Smiles: c1ccc(Nc2cc3ccccc3c3ccccc23)cc1
Test result: 23
--
Smiles: C=C(NC(=O)C(=C)NC(=O)c1csc(C2=N[C@@H]3c4csc(n4)[C@H]4NC(=O)c5csc(n5)[C@H]([C@](C)(O)[C@@H](C)O)NC(=O)[C@H]5CSC(=N5)/C(=C/C)NC(=O)[C@H]([C@@H](C)O)NC(=O)c5csc(n5)[C@]3(CC2)NC(=O)[C@H](C)NC(=O)C(=C)NC(=O)[C@H](C)NC(=O)[C@H]([C@@H](C)CC)N[C@@H]2C=Cc3c([C@H](C)O)cc(nc3[C@H]2O)C(=O)O[C@@H]4C)n1)C(N)=O
Test result: 0.62

###

Tested on: HGSOC cells
Assay name: CyQuant cell viability assay, HGSOC cells (CAOV3 and OVCAR4), summary in words
Type: cell-based, human
Experimental context: summary of Table 3
Measure name: potency and efficacy on HGSOC cell viability, in words

Compound: c1ccc(Nc2cc3ccccc3c3ccccc23)cc1 [N-phenylphenanthren-9-amine (NP9), N-phenylphenanthren-9-amine]
Test result: low potency
//
Compound: Nc1c(C(=O)Nc2ccc(F)cc2)sc2nc(-c3cccs3)cc(C(F)(F)F)c12 [FDI-6]
Test result: low potency
